Cited source for all entries: PubChem BioAssay (NCI)

Test Method Notes: NCI Yeast Anticancer Drug Screen. Data for the rad50 strain (AID 155);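 note: 0% = growth of vehicle-only cultures of the same strain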
Experimental Conditions: S. cerevisiae rad50 strain growth inhibition; at 50.0 µM; active compounds read high
The panel holds about 79,000 compounds, 15% with a hit somewhere; the sample as a whole holds those more often.

Compound	growth inhibition (%)
CCCCOC(=O)c1ccc(OC(=O)Nc2ccc(Cl)cc2)cc1	10.4
O=C(NN1C(=O)CS(=O)(=O)C1c1ccc(C(F)(F)F)cc1)c1ccncc1 (configuration not stated)	-10.7
O=c1c2ccccc2c2cc3nc4ccc([N+](=O)[O-])cc4c(=O)n3c3cccc1c23	-0.15
CCc1cccc(CC)c1N1C(=O)C2C(C1=O)C1(Cl)C(Cl)=C(Cl)C2(Cl)C1(Cl)Cl (configuration not stated)	37.4
CC(=O)OC(C(=O)O)C(OC(C)=O)C(OC(C)=O)C(=O)O (configuration not stated)	21.5
CCCCCC/C(C)=N/O	-1.8
C=CCCCOC(C)=O	5.1
C[n+]1cccc2cc([N+](=O)[O-])ccc21	-21.6
CS/C(=N/N=C/c1ccc2ccccc2n1)SS/C(=N/N=C\c1ccc2ccccc2n1)SC	-8.05
CCN(CC)C(=O)CCn1ccc(=O)[nH]c1=O	-52.4
N#CCc1ccc(Nc2cc(=O)[nH]c(=O)[nH]2)cc1	-7.5
O=C(Nc1ccc(S(=O)(=O)Nc2nccs2)cc1)c1cccnc1Nc1cccc(Cl)c1	36.6
O=C(CC(=O)c1ccccc1)CC(Nc1ccccc1)c1ccccc1 (configuration not stated)	58
Cc1ccc(S(=O)CC(Cl)c2ccccc2)cc1 (configuration not stated)	-26.6
COC1(c2ccccc2)N=C(c2ccc([N+](=O)[O-])cc2)OC1(C)C (configuration not stated)	4
CCN(CC)C(COC(=O)Nc1ccccc1)COC(=O)Nc1ccccc1	1.85
CCOC(=O)Nc1nc(-c2ccccc2)c(C)s1	-23.2
